Molecular target: Jack bean urease (Canavalia ensiformis, UniProt P07374)
Sequence (P07374 whole entry, looked up): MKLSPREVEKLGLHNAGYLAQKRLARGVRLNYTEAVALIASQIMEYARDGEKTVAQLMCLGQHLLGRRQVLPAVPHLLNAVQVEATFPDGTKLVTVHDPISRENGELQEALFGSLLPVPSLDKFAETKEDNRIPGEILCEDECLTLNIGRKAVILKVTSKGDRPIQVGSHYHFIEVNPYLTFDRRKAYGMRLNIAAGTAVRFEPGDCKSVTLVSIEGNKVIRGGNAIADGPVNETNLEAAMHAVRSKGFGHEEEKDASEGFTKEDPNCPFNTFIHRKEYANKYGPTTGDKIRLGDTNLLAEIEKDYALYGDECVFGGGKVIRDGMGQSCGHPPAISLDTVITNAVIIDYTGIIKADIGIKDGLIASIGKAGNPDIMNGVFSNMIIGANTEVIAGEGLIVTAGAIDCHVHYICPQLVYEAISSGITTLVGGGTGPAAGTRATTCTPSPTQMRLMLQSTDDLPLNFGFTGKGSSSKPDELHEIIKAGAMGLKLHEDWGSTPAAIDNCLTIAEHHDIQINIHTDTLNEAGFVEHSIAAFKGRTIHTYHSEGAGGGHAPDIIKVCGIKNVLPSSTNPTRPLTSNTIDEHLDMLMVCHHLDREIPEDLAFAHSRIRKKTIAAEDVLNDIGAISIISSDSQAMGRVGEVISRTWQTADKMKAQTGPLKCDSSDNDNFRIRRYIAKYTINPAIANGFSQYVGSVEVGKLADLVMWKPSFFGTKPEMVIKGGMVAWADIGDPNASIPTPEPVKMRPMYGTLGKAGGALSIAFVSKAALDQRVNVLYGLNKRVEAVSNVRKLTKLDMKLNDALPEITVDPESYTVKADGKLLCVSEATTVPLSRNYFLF
OBSERVATION_TYPE: IC50 (µM)
Report the value in µM with no unit label.

Item C[C@H](CS)C(=O)N1CCC[C@H]1C(=O)O with Jack bean urease (Canavalia ensiformis, UniProt P07374) - IC50? 27
